This collection of values is drawn from PubChem BioAssay (NCATS).

- experiment_summary: Primary fluorescence-based thiol-reactive (MSTI) qHTS assay for identification of artifact compounds. (AID 1845221); also: nearly all actives have a fitted effect of over 65% in size
- experimental_conditions: MSTI thiol-reactivity probe, 1 h; series mostly up to 53.8 µM
Inconclusive results are not listed. Calls of active or inactive are those of the source. Calls follow the shape of the dose curve; as a rule, active = well fitted inhibition curve with a large enough effect; inconclusive = small, poorly fitted or top-dose-only effect; inactive = no such curve, though single readings can be large or run the other way.
Outcomes: 1 for active, -1 for inactive

• COc1c2c(c(C)c3c1C(=O)OC3)O[C@@]1(C)CC(O)C(C(C)(C)O)[C@](C)(CCC(=O)O)[C@H]1C2 (stereo partly drawn) = -1
• C=C(C(=O)OC)C1C(O)CC2(C)C(=O)CCC(O)(CO)C2C1O (stereo not drawn) = -1
• CC(NC(=O)C(O)C(C)C)C(=O)NC1C(=O)N(C)CCc2ccccc21 (stereo not drawn) = -1
• CC(=O)c1ccc(O[C@@H]2O[C@H](CO)[C@@H](O)[C@H](O)[C@H]2O)cc1 = -1
• CC1=CC2C(CC1OC1OC(CO)C(O)C(O)C1O)C(C)CC(=O)C2C(C)C (stereo not drawn) = 1
• C=CC1(C)C=C2CCC3C(C)(C)C(O[C@@H]4O[C@@H](CO)[C@H](O)[C@H]4O)CCC3(C)C2CC1O[C@@H]1O[C@H](C)[C@H](O)[C@H](O)[C@H]1O (stereo partly drawn) = -1
• CCNC(=O)Nc1ncc(-c2cc(-c3c(C)cc(OC)cc3C)nc(-c3cnccn3)n2)s1 = -1
• CC1(C)C[C@H](O)C[C@@]2(C)OC(=O)C=C12 = 1
• COc1cc(N2CCC(N3CCN(C)CC3)CC2)ccc1Nc1ncc(Cl)c(-c2c[nH]c3ccccc23)n1 = 1
• COc1ccc(CNC(=O)c2sc3nc(C)cc(C)c3c2N)cc1 = -1
• O=C(O)/C=C/c1ccc(-c2ccc(O)c(C34CC5CC(CC(C5)C3)C4)c2)cc1 = -1
• O=S(=O)(c1ccccc1)c1cnc2c(N3CCNCC3)cccc2c1 = -1
• O=C(Nc1ccc(S(=O)(=O)C(F)(F)F)cc1)C1=CCN(c2ncccc2C(F)(F)F)CC1 = -1
• C[C@@H]1C(=O)O[C@H]2C[C@]34[C@H]5C[C@@H](C(C)(C)C)[C@]36[C@@H](OC(=O)[C@H]6O)O[C@]4(C(=O)O5)[C@]21O = -1
• O=C(O)Cc1cn(C2OCC(O)C(O)C2O[C@@H]2O[C@H](CO)[C@@H](O)[C@H](O)[C@H]2O)c2ccccc12 (stereo partly drawn) = -1
• C/C=C(/COC(=O)/C(C)=C/C)C(=O)OC(CC)c1ccc(OC)c(OC)c1 (stereo not drawn) = -1
• COCCN1CCN(Cc2ccc(-c3n[nH]c4c3C(=O)c3c(NC(=O)NN5CCOCC5)cccc3-4)cc2)CC1 = -1
• C=CC(=O)N1CCN(C(=O)CNc2cc(I)c(Cl)cc2O)CC1 = 1
